# studySystem: Histamine H2 receptor (Cavia porcellus)
# Sequence (P47747 whole entry): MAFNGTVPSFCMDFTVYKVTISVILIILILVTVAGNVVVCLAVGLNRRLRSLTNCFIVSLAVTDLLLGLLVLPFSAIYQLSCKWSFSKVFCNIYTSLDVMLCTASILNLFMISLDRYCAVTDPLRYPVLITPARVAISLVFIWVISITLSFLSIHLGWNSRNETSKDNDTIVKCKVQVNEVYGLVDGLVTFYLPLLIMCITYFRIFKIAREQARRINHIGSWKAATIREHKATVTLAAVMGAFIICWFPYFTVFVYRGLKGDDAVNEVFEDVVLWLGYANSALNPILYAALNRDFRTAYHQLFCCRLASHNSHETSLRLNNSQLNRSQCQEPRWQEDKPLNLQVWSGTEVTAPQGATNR
# protocolDetails: In vitro inhibition of Histamine H2 receptor by measuring its ability to block the histamine-stimulated adenylate cyclase of guinea pig hippocampal homogenate
pKi: −log10 of the molar value.

# compound, pKi
measured = [
    ("CNC(=C[N+](=O)[O-])NCCSCc1ccc(CN(C)C)o1 [RANITIDINE]", 6.30),
]
